B1: library; a variant is named by its letters at N, in order (parent)
chain: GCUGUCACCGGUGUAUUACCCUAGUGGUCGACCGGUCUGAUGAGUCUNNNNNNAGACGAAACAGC

Variants of: B1
Test: FACS-Seq fitted mean relative fluorescence mCherry/BFP without ligand (log10 relative fluorescence); ligand: hypoxanthine (xanthine aptamer); higher = higher reporter protein expression
Conditions: HEK293T, ligand present: no
Property Label: FACS-Seq fitted mean (log10)
Numbers only.

// input: 6 variants below; output: FACS-Seq fitted mean (log10) for each
1. AUAAAU
2. GAUCCG
3. AAUGAG
4. GGUAGU
5. CGUUAA
6. AACGAG

[0.431, 0.0801, 0.0392, 0.573, 0.0819, 0.131]
